Give measured TGI for each item. Keep answers brief.
# System: SF-268 CNS
# assay notes: NCI tumour cell line growth inhibition, 48 h

What TGI value was documented for this compound, O=C(CNC(c1ccccc1)(c1ccccc1)c1ccccc1)NC1CCCCC1NC(=O)CNC(c1ccccc1)(c1ccccc1)c1ccccc1 (stereo unspecified) ?
> 100 µM

What TGI value was documented for this compound, "Cn1c(/C=C/[N+](=O)[O-])cc2ccccc21" ?
27.4 µM

What TGI value was documented for this compound, "CCN(CC)CCNc1ccc2nnn3c4ccc(O)cc4c(=O)c1c23" ?
21.7 µM

What TGI value was documented for this compound, CSc1nc2c(ncn2C2OCC(O)C(O)C2O)c(=O)n1C (stereo unspecified) ?
> 100 µM

What TGI value was documented for this compound, "Cn1cc(C2=C(c3cn(C)c4ccccc34)C(=O)NC2=O)c2ccccc21" ?
> 25 µM

What TGI value was documented for this compound, "Nc1nc2c(ncn2Cc2ccccc2CO)c(=O)[nH]1" ?
> 100 µM

What TGI value was documented for this compound, "CC(C)(C)c1c2c(c(C(C)(C)C)c3c1OCN(Cc1ccccc1)C3)OCN(Cc1ccccc1)C2" ?
35.6 µM

What TGI value was documented for this compound, "Fc1ccc(-c2sc(-c3cccs3)cc2Cc2cccs2)cc1" ?
> 100 µM

What TGI value was documented for this compound, "COc1ccc(C(=O)C(c2ccc(OCc3ccccc3)cc2)c2ccc(OCc3ccccc3)cc2)cc1" ?
> 100 µM

What TGI value was documented for this compound, COC1OC(COC(=O)c2cc(O)c(O)c(O)c2)C(OC(=O)c2cc(O)c(O)c(O)c2)C(OC(=O)c2cc(O)c(O)c(O)c2)C1OC(=O)c1cc(O)c(O)c(O)c1 (stereo unspecified) ?
> 100 µM

What TGI value was documented for this compound, "CSc1ccc(/C=C2\N=C(c3ccccc3)N(c3nc4cc(C)c(C)cc4s3)C2=O)cc1" ?
> 100 µM

What TGI value was documented for this compound, COc1ccc(C2=NN(C(=O)c3cc(OC)c(OC)c(OC)c3)C(c3ccc(N(C)C)cc3)C2)cc1 (stereo unspecified) ?
> 100 µM

What TGI value was documented for this compound, O=C(O)C12CCCCC1CCCC2 (stereo unspecified) ?
> 100 µM

What TGI value was documented for this compound, CCCCCCCCCCCCOC1C(CNC(=O)C2OC3OC(C)(C)OC3C2NC(=O)Nc2ccc(CC(=O)NC(Cc3ccccc3)C(=O)O)cc2)OC2OC(C)(C)OC21 (stereo unspecified) ?
> 25 µM

What TGI value was documented for this compound, "O=C1CCSC2=C1SCc1sccc12" ?
> 100 µM

What TGI value was documented for this compound, O=C(O)c1ccc(C2SCc3nc4ccccc4n32)cc1 (stereo unspecified) ?
> 100 µM

---

# System: DMS 273 small cell lung
# assay notes: NCI tumour cell line growth inhibition, 48 h
readout kind: TGI (µM)
Hi! Could you send only the number? It should be in µM, unit omitted.

What TGI value was documented for this molecule, COc1cc(C2C(Cl)C(=O)N2NC(=O)c2ccc(N)cc2)cc(Br)c1O (centres undefined) ?
31.9

What TGI value was documented for this molecule, "O=Cc1ccc(CCl)cc1" ?
38.8

---

# System: NCI-H460 lung
Respond with a class label; see class 1 = active, class 0 = inactive

Please let me know the test result on file for O=C1c2ccccc2-c2c1c1ccccc1c(=O)n2CCCNCCCCNCCCN1C(=O)c2ccccc2C2C(=O)c3ccccc3C21 (centres undefined) .
class 1

Please let me know the test result on file for "CN1CCN(c2ccc3nc(-c4ccc5nc(-c6ccc(O)cc6)[nH]c5c4)[nH]c3c2)CC1" .
class 0

Please let me know the test result on file for "COc1ccc(/C=C2\C=C(c3ccccc3)N(CCc3ccccc3)C2=O)cc1OC" .
class 0

Please let me know the test result on file for "COc1ccc(Nc2cc(C)nc(NCCCNc3ccnc4cc(Cl)ccc34)n2)cc1" .
class 0

Please let me know the test result on file for "Cn1c(/C=C/[N+](=O)[O-])cc2ccccc21" .
class 0

Please let me know the test result on file for "Clc1ccc(-c2cc(-c3ccccc3)nc(NCCNc3ccnc4cc(Cl)ccc34)n2)cc1" .
class 0

Please let me know the test result on file for Clc1cc(Cl)cc(N2N=C(c3cccc(Nc4ccncc4)c3)CC2c2ccc3c(c2)OCO3)c1 (centres undefined) .
class 0

Please let me know the test result on file for "CC(=O)Oc1ccc(/C(=C(\C)c2ccc(Cl)cc2)c2ccc(OCCN3CCCCC3)cc2)cc1" .
class 0

Please let me know the test result on file for "O=C(Nc1ccccc1)c1cc(S(=O)(=O)Nc2nc3ccccc3o2)c(SCc2ccccc2)cc1Cl" .
class 0
